test method notes: modulators of MEP2-GFP levels in yeast, confirmation, S. cerevisiae, flow cytometry GFP, cherry picks (AID 2272)
test parameters: S. cerevisiae MEP2-GFP strain, 3 h, at 10 µM
Calls of active or inactive are those of the source.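 Rule for the calls: active = GFP response above 150% of the DMSO control; inconclusive = Fewer than 70 cells counted for a yeast strain; inactive = the rest.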
Hi! Could you answer with just one of these? active, inactive

Some solved cases for reference:
CCOC(=O)CNc1c(-c2ccc(O)cc2)nc2ccc(Cl)cn12; inactive
Cc1cc(O)c(C(=O)/C=C/c2ccccc2)c(=O)o1; inactive

Query: What call does the record list for Cc1ccc(N2C(=O)C(Cl)=C(NCc3ccccc3)C2=O)c(C)c1 ?
Response: inactive

Query: What call does the record list for COc1ccc(COC(=O)c2n[nH]c3ccccc23)cc1F ?
Response: inactive

Query: What call does the record list for Cc1[nH][nH]c(=O)c1C(c1ccc(N(C)C)c(Br)c1)c1c(C)[nH][nH]c1=O ?
Response: inactive

Query: What call does the record list for CCOC(=O)c1c(C)[nH]c(C)c1C(=O)COC(=O)c1cc2ccccc2cc1O ?
Response: inactive

Query: What call does the record list for COc1ccc(N2C(=O)c3cccc4cccc(c34)C2=O)nn1 ?
Response: inactive

Query: What call does the record list for O=c1c(-c2ccc(Cl)cc2)[n+]([O-])c2ccccc2n1O ?
Response: inactive

Query: What call does the record list for CC(=O)N(\C=C/C=C/C=C1\Sc2ccccc2C1=O)c1ccccc1 ?
Response: active

Query: What call does the record list for Cc1ccccc1N1C(=O)c2cccc3c(N(C)CCO)ccc(c23)C1=O ?
Response: inactive

Query: What call does the record list for COc1ccc(/C=C2/C(=O)ON=C2c2ccccc2)cc1OC ?
Response: inactive

Query: What call does the record list for CCCc1[nH]nc2c1C1(C(=O)N(CC)c3ccccc31)C(C#N)=C(N)O2 (stereo not given) ?
Response: inactive

Query: What call does the record list for CC(Oc1ccc(Cl)cc1)C(=O)NNC(=S)NC(=O)c1ccco1 (stereo not given) ?
Response: inactive

Query: What call does the record list for Cc1nnc(NC(=O)c2ccc(S(=O)(=O)N3CCCCCC3)cc2)o1 ?
Response: inactive

Query: What call does the record list for CCCCOc1c(Br)cc(/C=C2\N=C(C)OC2=O)cc1OCC ?
Response: inactive

Query: What call does the record list for O=[N+]([O-])c1cccnc1S(=O)(=O)c1ccccc1 ?
Response: inactive
